variants and their reported self-cleavage kobs at 10000 uM GlcN6P
B1: glmS ribozyme (parent)
chain: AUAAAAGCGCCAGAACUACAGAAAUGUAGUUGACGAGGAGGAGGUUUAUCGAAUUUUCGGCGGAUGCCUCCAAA

variants of: B1; assay: self-cleavage kobs at 10000 uM GlcN6P; higher = faster cleavage; RNA array; details: with glucosamine-6-phosphate
Variants at the floor of the assay were thinned out.
Numbers only here, please. The scale is s⁻¹.

Study these solved cases before continuing.
             mutations  numeric_readout
0            U46G C58A         8.21e-05
1            U55G G59U          4.4e-05
2  C10G C50G G63A C71U         5.34e-05
3            C67G C68U         6.92e-05

q: Give self-cleavage kobs at 10000 uM GlcN6P for the following variant: U31A U45G
a: 0.00194

q: Give self-cleavage kobs at 10000 uM GlcN6P for the following variant: A39U U47C
a: 0.00934

q: Give self-cleavage kobs at 10000 uM GlcN6P for the following variant: G37A G38U C50G C67U
a: 0.000315
